Values from ChEMBL document CHEMBL1949593

Each item that follows carries a reported selectivity ratio.
Assay: Therapeutic index, ratio of IC50 for […] cells to IC50 for ring stage chloroquine-sensitive Plasmodium falciparum 3D7
Format: cell-based
Conditions: mouse, read-out: Ratio IC50
parameterMeasured: selectivity ratio

COc1cc(OC)c(OC)cc1/C=C/C(=O)c1ccc(/C=C/c2cc(OC)c(OC)c(OC)c2)cc1 ... 29.8
COc1cc(OC)c(OC)cc1/C=C/C(=O)c1ccc(/C=C/c2cc(OC)c(O)c(OC)c2)cc1 ... 45.5
COc1cc(/C=C/c2ccc(C(=O)/C=C/c3cc(OC)c(OC)cc3OC)cc2)ccc1O ... 4.7
COc1cc(OC)c(OC)cc1/C=C/C(=O)c1ccc(/C=C/c2ccc(O)c(O)c2)cc1 ... 7.6
COc1cc(OC)c(C(=O)/C=C/c2ccc(/C=C/c3cc(OC)c(O)c(OC)c3)cc2)cc1OC ... 8.4

---

Tested on: Plasmodium falciparum
Experiment: Antimalarial activity against ring stage chloroquine-sensitive Plasmodium falciparum 3D7 infected in human O positive erythrocytes after 48 hrs by SYBR green 1 fluorescence assay
Format: functional, organism-based
Details: 3D7, 48 h
pIC50: −log10 of the molar value.
parameterMeasured: pIC50

COc1ccc(C(=O)/C=C/c2ccc(/C=C/c3ccc(O)c(OC)c3)cc2)cc1 ... 4.18
COc1cc(OC)c(OC)cc1/C=C/C(=O)c1ccc(/C=C/c2ccc(O)cc2)cc1 ... 5.00
COc1cc(/C=C/c2ccc(/C=C/c3cc(OC)c(O)c(OC)c3)cc2)cc(OC)c1O ... 4.96
COc1cc(OC)c(OC)cc1/C=C/C(=O)c1ccc(/C=C/c2ccc(O)c(O)c2)cc1 ... 5.38
COc1cc(OC)c(C(=O)/C=C/c2ccc(/C=C/c3cc(OC)c(O)c(OC)c3)cc2)cc1OC ... 5.37
COc1ccc(C(=O)/C=C/c2ccc(/C=C/c3cc(OC)c(O)c(OC)c3)cc2)cc1 ... 4.30
COc1cc(OC)c(OC)cc1/C=C/C(=O)c1ccc(/C=C/c2cc(OC)c(OC(C)=O)c(OC)c2)cc1 ... 5.66
O=C(/C=C/c1cccs1)c1ccc(/C=C/c2ccccc2)cc1 ... 4.44
O=C(/C=C/c1c[nH]c2ccc(Cl)cc12)c1ccc(/C=C/c2ccccc2)cc1 ... 4.59
COc1cc(OC)c(OC)cc1/C=C/C(=O)c1cccc(C(=O)/C=C/c2cc(OC)c(OC)cc2OC)c1 ... 5.55
COc1cc(OC)c(OC)cc1/C=C/C(=O)c1ccc(O)cc1 ... 4.21
COc1ccc(/C=C/C(=O)c2ccc(/C=C/c3ccccc3)cc2)cc1OC ... 4.53
COc1ccc(/C=C/C(=O)c2ccc(/C=C/c3ccc(O)c(OC)c3)cc2)cc1 ... 4.47
COc1cc(OC)c(/C=C/C(=O)c2ccc(/C=C/c3cc(OC)c(O)c(OC)c3)cc2)c(OC)c1 ... 4.80

---

Each item that follows carries a reported IC50.
Test system: Plasmodium falciparum
Test: Antimalarial activity against ring stage chloroquine-sensitive Plasmodium falciparum 3D7 infected in human O positive erythrocytes after 48 hrs by SYBR green 1 fluorescence assay
Assay type: functional, organism-based
Conditions: 3D7, 48 h
parameterMeasured: IC50 (µM)

COc1cc(/C=C/c2ccc(C(=O)/C=C/c3cc(OC)c(OC)cc3OC)cc2)ccc1O ... 5.3
COc1cc(OC)c(OC)cc1/C=C/C(=O)c1ccc(/C=C/c2cc(OC)c(OC)c(OC)c2)cc1 ... 5.2
COc1ccc(/C=C/C(=O)c2ccc(/C=C/c3cc(OC)c(O)c(OC)c3)cc2)cc1 ... 15
COc1cc(/C=C/c2ccc(C(=O)/C=C/c3ccc(OC)c(OC)c3OC)cc2)cc(OC)c1O ... 4.9
COc1cc(OC)c(OC)cc1/C=C/C(=O)c1ccc(/C=C/c2cc(OC)c(O)c(OC)c2)cc1 ... 2.2
COc1cc(OC)c(OC)cc1/C=C/C(=O)c1ccc(/C=C/c2ccccc2)cc1 ... 18
